# assayInfo: protein stability index of a GFP-peptide fusion (GPS, HEK-293T) (PSI 1-6); higher = more stable;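 further: 24-mer peptide tiles fused after GFP, lentivirally expressed, FACS-sorted into six equal bins by GFP/DsRed ratio, decoded by Illumina sequencing, PSI is the read-weighted mean bin number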
# conditionSummary: treatment: DMSO; c terminus: a fixed tail appended
Mark Yes for reported protein stability index of 3 or greater; mark No for anything smaller.

# count of solved cases: 5
| residueCodes | answerLabel |
| --- | --- |
| DNIREAFQIYDKEASGYVDRDMFF [EFHC1] | Yes |
| DGSVRIWELREKQQLAAEPVPTGF [WDR41] | Yes |
| DHSEHLSGSSYRDALQRYGTSHGA [RBMY1A1] | Yes |
| KIRRGQFCIPEHISPKARCLIRSL [TRIB1] | No |
| NCVLSSSPNPFPEISRGEYLYTYD [ZNF8] | No |

Hi, just wondering whether AVQLRHAWNPEDRSLNVFVKDDDR [SPSB4] shows protein stability index of 3 or higher.
Yes

Hi, just wondering whether VAWCYYSVSLRKAERLRAELLDLK [MYORG] shows protein stability index of 3 or higher.
No

Hi, just wondering whether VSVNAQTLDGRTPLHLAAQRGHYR [RIPK4] shows protein stability index of 3 or higher.
Yes

Hi, just wondering whether DFKEDLKKFRTKSRTWAGEKSKRE [CDC25A] shows protein stability index of 3 or higher.
Yes

Hi, just wondering whether PVKELAALPKATILDLSCNKLTTL [LRRC59] shows protein stability index of 3 or higher.
Yes

----------
# assayInfo: protein stability index of a GFP-peptide fusion (GPS, HEK-293T) (PSI 1-6); higher = more stable
# conditionSummary: treatment: DMSO; c terminus: a fixed tail appended
quantityKind: protein stability index
Lab note: jot down the number only; don't add units.

Below: 3 sequences and their reported protein stability index.
| residueCodes | measuredResult |
| --- | --- |
| MASCPDSDNSWVLAGSESLPVETL [PBXIP1] | 4.31 |
| APFGRISDARVVKDMATGKSKGYG [TIA1] | 4.47 |
| LPTTKMAQTNPTPGSLGPWKITIY [CRYBA1] | 2.71 |

Moving on to another sequence below.
Name the recorded protein stability index for INQVLLFLLIVTLCVILYKKVHKG [GLT8D2] .
3.12

----------
# assayInfo: protein stability index of a GFP-peptide fusion (GPS, HEK-293T) (PSI 1-6); higher = more stable
# conditionSummary: treatment: MLN4924 1 uM, 8 h; c terminus: a fixed tail appended
quantityKind: protein stability index
Lab note: jot down the number only; don't add units.

| residueCodes | protein stability index |
| --- | --- |
| EAGASLVDQKLELNIVPRTKVVYL [PI4K2A] | 2.34 |

Name the recorded protein stability index for CTMEPEPVQPGMLIDVCKYLGSLQ [TRIM35] .
2.41

Name the recorded protein stability index for ATYISEVHEHDGHLYLGSFRSPFL [APMAP] .
1.97

Name the recorded protein stability index for PLRAVHINLEEKEKQIRSFLIEGP [PLEKHN1] .
3.8

Name the recorded protein stability index for ASLLQPVTPLGTSRWRKISAALPY [NCF4] .
2.61

Name the recorded protein stability index for KMGLQERSETFLEVWGNALLRPPV [DNAAF3] .
2.49

Name the recorded protein stability index for AVTKDFKLTDKHETVVSYLPLSHI [ACSBG2] .
3.08

----------
# assayInfo: protein stability index of a GFP-peptide fusion (GPS, HEK-293T) (PSI 1-6); higher = more stable
# conditionSummary: treatment: MLN4924 1 uM, 8 h; c terminus: a fixed tail appended
Mark yes (1) for reported protein stability index of 4 or greater; mark no (0) for anything smaller.

# count of solved cases: 2
| residueCodes | answerLabel |
| --- | --- |
| DRLWRPSKVLSLQDLCCRAVVSCT [RAB40B] | no (0) |
| GCLGHGSLTDISQPTIVEALLGYE [NEK8] | no (0) |

Hi, just wondering whether VDCACLKENPECPVLKRSSESMEN [KMT2E] shows protein stability index of 4 or higher.
yes (1)

Hi, just wondering whether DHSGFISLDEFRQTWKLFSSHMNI [PPEF2] shows protein stability index of 4 or higher.
no (0)

----------
# assayInfo: protein stability index of a GFP-peptide fusion (GPS, HEK-293T) (PSI 1-6); higher = more stable
# conditionSummary: treatment: DMSO; c terminus: a fixed tail appended
Mark class 1 for reported protein stability index of 4 or greater; mark class 0 for anything smaller.

# count of solved cases: 6
| residueCodes | answerLabel |
| --- | --- |
| FSTYTSDKDENKLSEASGGRAENG [ZC3H15] | class 1 |
| PNTAVSVHVSESSDDDEEEEENIG [ACBD3] | class 1 |
| SLDGKAIKVEQATKPSFESGRRGP [RBMX] | class 1 |
| DDDKGDSKETRLTLMEEVLLLGLK [GOLPH3] | class 0 |
| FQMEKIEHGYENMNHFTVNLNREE [TRIM55] | class 0 |
| VLQHVRLPLLSPKFLVGTVGSDPL [KLHL20] | class 0 |

Hi, just wondering whether MDIGQPKDFLTGMCLFLQSLRQKQ [GMPPB] shows protein stability index of 4 or higher.
class 0

Hi, just wondering whether RSLSERTVDKCFGRKKYDIDPRNG [SPATS1] shows protein stability index of 4 or higher.
class 1

Hi, just wondering whether EVEVVEEAKCCCFFKRKRKKTAQR [CSNK1G1] shows protein stability index of 4 or higher.
class 1

----------
# assayInfo: protein stability index of a GFP-peptide fusion (GPS, HEK-293T) (PSI 1-6); higher = more stable
# conditionSummary: treatment: DMSO; c terminus: a fixed tail appended
Mark fulfilled for reported protein stability index of 3 or greater; mark not fulfilled for anything smaller.

| residueCodes | answerLabel |
| --- | --- |
| CNLWDSHHPEVPQRILRIMCRLEE [HDAC6] | not fulfilled |

Hi, just wondering whether KRLREEEAARLFKQIVSAVAHCHQ [TRIB1] shows protein stability index of 3 or higher.
not fulfilled

Hi, just wondering whether EPGRLYLDLILAILALELICSLIC [TMEM192] shows protein stability index of 3 or higher.
not fulfilled

Hi, just wondering whether LAPEVIQSKGHGRAVDWWALGILI [PRKX] shows protein stability index of 3 or higher.
not fulfilled

Hi, just wondering whether NMDPAGLDDEDDTSIGMPSLMYRS [RETREG3] shows protein stability index of 3 or higher.
fulfilled

Hi, just wondering whether GCLGHGSLTDISQPTIVEALLGYE [NEK8] shows protein stability index of 3 or higher.
fulfilled

----------
# assayInfo: protein stability index of a GFP-peptide fusion (GPS, HEK-293T) (PSI 1-6); higher = more stable
# conditionSummary: treatment: DMSO; c terminus: a fixed tail appended
quantityKind: protein stability index
Lab note: jot down the number only; don't add units.

Name the recorded protein stability index for QNPVLSKLLMADQDSPLDLTVRKS [LCOR] .
4.14

Name the recorded protein stability index for STEVQAHPYSTTFQESASTPETRA [TEKT4] .
5.23

Name the recorded protein stability index for DPTQRILYRDVMLETFGHLLSIGP [ZNF8] .
2.21

----------
Entries and their protein stability index
# assayInfo: protein stability index of a GFP-peptide fusion (GPS, HEK-293T) (PSI 1-6); higher = more stable
# conditionSummary: treatment: MLN4924 1 uM, 8 h; c terminus: a fixed tail appended
Lab note: jot down the number only; don't add units.

Below: 6 sequences and their reported protein stability index.
| residueCodes | protein stability index |
| --- | --- |
| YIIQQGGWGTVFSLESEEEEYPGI [BCL2L13] | 2.9 |
| WKYALDMQQSNLDPLSPMTASSLL [FEM1C] | 2.84 |
| AQFRLLSEVEELNMSLTALREKLL [TEKT4] | 2.62 |
| TLSAELVPWLNLKKQDENEGIKVE [CEP70] | 4.22 |
| WMEVLVLGVAQRSLPLQDELAFAE [ESRRA] | 2.64 |
| FKWYLENVYPEMRVYNNTLTYGEV [GALNT9] | 2.43 |

Name the recorded protein stability index for QPTTLVLPPQYVDDVISRIDRMFP [MED27] .
3.98

Name the recorded protein stability index for DLPWFRTLSWYFLLCVNYFFYGET [CDS2] .
3.23

Name the recorded protein stability index for TKKRKTFDSSRQRAEGTDIPTVKP [ZC2HC1A] .
4.79

Name the recorded protein stability index for VSDRLAPGAPRGNPPKASAAPDCT [MYCL] .
4.95

Name the recorded protein stability index for LPWSSVLRVWDMFFCEGVKIIFRV [TBC1D10A] .
3.34

Name the recorded protein stability index for NTVVSTYVTTNVSLIPPRSEQLVN [TMEM106C] .
3.19

Name the recorded protein stability index for FVQREEQLQFLIRYHRFISFALYL [CDS1] .
2.68

Name the recorded protein stability index for VQDWYHFHYVDILALLPAAWEDSH [SCNN1D] .
2.67

Name the recorded protein stability index for RVMMASASDYFKAMFTGGMKEQDL [KLHL13] .
2.82

Name the recorded protein stability index for AYIATQGPLAETTEDFWRMLWEHN [PTPRD] .
2.8
